Recorded Complete for the following molecules
# Test system: NCI-H292 lung cancer cells
# Experimental Details: FDA drug screening, complete media vs cholesterol-free media without statin (TABLE 1)
# Format: cell-based, human
# Condition: NCI-H292 cells in complete media

Some entries whose results are on file:
- CC(C)OC(=O)CCC/C=C\C[C@@H]1[C@@H](/C=C/[C@@H](O)COc2cccc(C(F)(F)F)c2)[C@H](O)C[C@@H]1O: 0.9075
- COc1cccc(-c2c(C)n(Cc3c(F)cccc3C(F)(F)F)c(=O)n(C[C@H](NCCCC(=O)O)c3ccccc3)c2=O)c1F [(R)-Elagolix]: 0.8996
- CCCCCCCCCCCCCCCCCCOCC(O)CO (stereo not shown): 0.7704

From here, focus on the item given below.
Ask: Quick one: Complete for `CC1=NN(c2ccc(C)c(C)c2)C(=O)/C1=N\Nc1cccc(-c2cccc(C(=O)O)c2)c1O` ?
Reply: 0.7856

###

Property: Difference; scope: individual compounds
# Test system: NCI-H292 lung cancer cells
# Experimental Details: FDA drug screening, complete media vs cholesterol-free media without statin (TABLE 1)
# Format: cell-based, human
# Condition: Complete minus Cholesterol-free; greater than 0 enhanced anti-cancer activity, about 0 neutral, below 0 antagonists
Where a name gives a salt, the structure may show the parent alone.
Response field accepts a number only; no unit should be typed.

Recorded results for 3 compounds are shown here.
* COc1ccc2c(c1)C(=O)N(CCc1ccc(S(=O)(=O)NC(=O)NC3CCCCC3)cc1)C(=O)C2(C)C | −0.68
* N#Cc1ccc([C@H]2CCc3cncn32)c(F)c1 | −0.71
* COCCCOc1ccnc(C[S+]([O-])c2nc3ccccc3[n-]2)c1C.[Na+] (stereo not shown) [Rabeprazole (sodium)] | −0.70

Ask: GET /values?readout=Difference&item= `NC(=O)CN1CCCC1=O`
Reply: −0.50

Ask: Look up Difference: CC(=O)O[C@]1(C(C)=O)CC[C@H]2[C@@H]3C=C(Cl)C4=CC(=O)CC[C@]4(C)[C@H]3CC[C@@]21C [Chlormadinone acetate]
Reply: −0.74

Ask: Query (compound): COc1cccc(-c2c(C)n(Cc3c(F)cccc3C(F)(F)F)c(=O)n(C[C@H](NCCCC(=O)O)c3ccccc3)c2=O)c1F [(R)-Elagolix] ; field requested: Difference
Reply: −0.49

Ask: Entry `CC(C)(CO)c1cc2cc(NC(=O)C3(c4ccc5c(c4)OC(F)(F)O5)CC3)c(F)cc2n1C[C@@H](O)CO` has what Difference?
Reply: −0.63

Ask: Difference lookup needed for `CCOc1nc2cccc(C(=O)OCc3oc(=O)oc3C)c2n1Cc1ccc(-c2ccccc2-c2noc(=O)[nH]2)cc1` , thanks.
Reply: −0.49

Ask: Look up Difference for this compound: O=C(O)c1cc(=O)c2c(OCC(O)COc3cccc4oc(C(=O)O)cc(=O)c34)cccc2o1 [Cromolyn (sodium)]
Reply: −0.63

Ask: I have this compound here, `Cc1c(NC(=O)c2cccnc2)c(=O)n(-c2ccccc2)n1C` , and I need its recorded Difference.
Reply: −0.66

Ask: Requested read-out: Difference. Entry: CCOC(=O)[C@@H](N)Cc1ccc(-c2cc(O[C@H](c3ccc(Cl)cc3-n3ccc(C)n3)C(F)(F)F)nc(N)n2)cc1 [Telotristat etiprate]
Reply: −0.51

Ask: // lookup Difference for `CC(C)(Sc1cc(C(C)(C)C)c(O)c(C(C)(C)C)c1)Sc1cc(C(C)(C)C)c(O)c(C(C)(C)C)c1`
Reply: −0.87

Ask: Report Difference for CC(C)(Oc1ccc(C(=O)c2ccc(Cl)cc2)cc1)C(=O)[O-].C[N+](C)(C)CCO [Choline Fenofibrate] please.
Reply: −0.65

Ask: Any idea what Difference was measured for `COCCCOc1cc(C[C@@H](C[C@H](N)[C@@H](O)C[C@H](C(=O)NCC(C)(C)C(N)=O)C(C)C)C(C)C)ccc1OC` ?
Reply: −0.67

Ask: I would be grateful if you could share the reported Difference for C=C1CC[C@H](O)C/C1=C/C=C1\CCC[C@]2(C)[C@@H]([C@H](C)/C=C/[C@H](C)C(C)C)CC[C@@H]12 [Vitamin D2] .
Reply: −0.62

Ask: Which Difference value belongs to `CCN(CC)C(=O)c1ccc(O)c(OC)c1` ?
Reply: −0.50

Ask: What value of Difference has been recorded for this entry: `Nc1ncnc2[nH]cnc12`
Reply: −0.97

Ask: Looking for the measured Difference of Clc1ccccc1CN1CCc2sccc2C1 [Ticlopidine (hydrochloride)] , can you help?
Reply: −0.88

###

# System: NCI-H292 lung cancer cells
# Experimental Details: FDA drug screening, complete media vs cholesterol-free media with simvastatin (TABLE 2)
# Format: cell-based, human
# Condition: complete media vs cholesterol-free media + simvastatin (0.04 μM); >0 enhanced anti-cancer activity, about 0 neutral, <0 antagonist
Counter-ions that a name gives are not always drawn.
Metric Name: Difference

These recorded examples may help you get a feel for the data.
- O=P(O)(O)C(Cl)(Cl)P(=O)(O)O [Clodronic acid (disodium salt)]: −0.81
- Cn1ncnc1[C@H]1c2n[nH]c(=O)c3cc(F)cc(c23)N[C@@H]1c1ccc(F)cc1 [Talazoparib tosylate]: −0.29
- c1ccc2c(c1)CCCC2C1=NCCN1 (stereo not shown) [Tetrahydrozoline (hydrochloride)]: −0.13

Let us move to another entry and its Difference.
Ask: Give the measured Difference of `O=C(NC[C@H]1CN(c2ccc(N3CCOCC3=O)cc2)C(=O)O1)c1ccc(Cl)s1` .
Reply: −0.14

###

# System: NCI-H292 lung cancer cells
# Experimental Details: FDA drug screening, complete media vs cholesterol-free media with simvastatin (TABLE 2)
# Assay type: cell-based, human
# Condition: complete media minus cholesterol-free media + simvastatin (0.04 μM); >0 enhanced anti-cancer activity, about 0 neutral, <0 antagonist
Structures can show the parent of a compound that is named as a salt.
Define the label as 1 (yes) when Difference is strictly less than -0.05 and as 0 (no) in all remaining cases.

The following compounds have reported results that may help.
- Cc1cc(S(=O)(=O)O)c2c(C)ccc(C(C)C)cc1-2 [Sodium gualenate]: 1 (yes)
- Nc1nc(O)c2ncn(COC(CO)CO)c2n1 [Ganciclovir (sodium)]: 0 (no)
- O=C(c1cc(Cc2n[nH]c(=O)c3ccccc23)ccc1F)N1CCN(C(=O)C2CC2)CC1: 0 (no)
- CCCN(CCc1cccs1)[C@H]1CCc2c(O)cccc2C1: 1 (yes)
- COc1ccccc1OCC(O)CN1CCN(CC(=O)Nc2c(C)cccc2C)CC1 (stereo not drawn) [Ranolazine (dihydrochloride)]: 1 (yes)
- CC(C)NC[C@H](O)COc1cccc2ccccc12.Cl [(S)-(−)-Propranolol (hydrochloride)]: 0 (no)
- Cc1cn([C@@H]2C[C@@H](O)[C@H](CO)O2)c(=O)[nH]c1=O: 0 (no)
- O=C1NC(=O)C(c2ccccc2)(c2ccccc2)N1 [Phenytoin (sodium)]: 0 (no)

Could you now look at the following compound, please?
Ask: Could you please tell me whether Difference recorded for `CCOC(=O)[C@H](CCc1ccccc1)N[C@@H](C)C(=O)N1[C@H](C(=O)O)C[C@@H]2CCC[C@@H]21` is less than -0.05?
Reply: 1 (yes)

###

Listing of entries alongside the reported Difference.
# Tested on: NCI-H292 lung cancer cells
# Experimental Details: FDA drug screening, complete media vs cholesterol-free media with simvastatin (TABLE 2)
# Type: cell-based, human
# Condition: complete media minus cholesterol-free media + simvastatin; >0 enhanced anti-cancer activity, about 0 neutral, <0 antagonist
Structures can show the parent of a compound that is named as a salt.
Could you keep your reply to the number by itself?

• CCCCc1oc2ccccc2c1C(=O)c1cc(I)c(OCCN(CC)CC)c(I)c1 [Amiodarone (hydrochloride)] = 0.03

Ask: Fill in the blank: the reported Difference of `N[C@@H](C(=O)N[C@@H]1C(=O)N2C(C(=O)O)=C(Cl)CS[C@H]12)c1ccccc1` is ____.
Reply: 0.10

Ask: Please look up its Difference: O[C@@H]1CO[C@H]2[C@@H]1OC[C@@H]2O [Isosorbide]
Reply: 0.59

Ask: Reported Difference, compound `C[C@H]1C[C@@H]2[C@H]([C@@H](O)C[C@@]3(C)[C@H]2CC[C@]3(O)C(=O)CO)[C@@]2(C)C=CC(=O)C=C12` : ____
Reply: 0.20

Ask: Given the compound `CC(C)(C)CC(C)(C)c1ccc(O)c(Cc2ccc(Cl)cc2Cl)c1` , what is its reported Difference?
Reply: 0.17

###

Quick reference for Difference among some molecules
# Test system: NCI-H292 lung cancer cells
# Experimental Details: FDA drug screening, complete media vs cholesterol-free media without statin (TABLE 1)
# Type: cell-based, human
# Condition: Complete minus Cholesterol-free; >0 enhanced anti-cancer activity, about 0 neutral, <0 antagonist

Before answering, review these 10 worked examples.
- CC(C)Cc1ccc([C@H](C)C(=O)O)cc1 [(S)-(+)-Ibuprofen]: −0.01
- N[C@@H](Cc1cc(I)c(Oc2cc(I)c(O)c(I)c2)c(I)c1)C(=O)O.[Na] [L-Thyroxine (sodium)]: −0.07
- Cn1c(=O)c2[nH]cnc2n(C)c1=O [Choline theophyllinate]: −0.20
- CC1CC(OC(=O)C(O)c2ccccc2)CC(C)(C)C1 (centres unmarked) [Cyclandelate]: −0.23
- Nc1ncn([C@H]2C[C@H](O)[C@@H](CO)O2)c(=O)n1: −0.25
- O=C1CCC[C@@H]2[C@H]3CCC[N+]4([O-])CCC[C@@H](CN12)[C@@H]34 (some centres unmarked): 0.05
- O=C(c1ccc(F)c(F)c1Nc1ccc(I)cc1F)N1CC(O)([C@@H]2CCCCN2)C1 (racemic) [Cobimetinib (racemate)]: −0.02
- C[C@@H](O)[C@H]1C(=O)N2C(C(=O)O)=C([C@H]3CCCO3)S[C@H]12 [Faropenem sodium]: −0.02
- CC(=O)OCC(CCn1cnc2cnc(N)nc21)COC(C)=O: −0.27
- C[C@@H]1CCO[C@H]2Cn3cc(C(=O)NCc4ccc(F)cc4F)c(=O)c(O)c3C(=O)N12: −0.20

Let us move to another entry and its Difference.
Ask: Hello, I am looking for reported Difference with NCI-H292 lung cancer cells for CC(c1cc2ccccc2s1)N(O)C(N)=O (centres unmarked) . Could you help?
Reply: −0.21

Cited source for all entries: patent US20250144067A1
